- test_target: PI3K γ (Homo sapiens, UniProt P48736)
- protocol: PI 3-Kinase (human) HTRF assay, PI3K γ
- study_conditions: read-out: PI3K γ IC50; in vitro
value_kind: IC50

Below, each entry is followed by its recorded IC50 result.
compound: CNS(=O)(=O)c1cc(-c2ccc3ncc(C(=O)N4CCOCC4)n3c2)ccc1OC [Compound 445]
test_target: PI3K γ (Homo sapiens, UniProt P48736)
value_kind: IC50
reported_result: > 10 µM

compound: Cc1cc(-c2ccc3nc(N)oc3c2)cn2c(-c3ccncc3)nnc12 [Compound 543]
test_target: PI3K γ (Homo sapiens, UniProt P48736)
value_kind: IC50
reported_result: > 10 µM

compound: O=C(c1cnc2ccc(-c3cncc4c3cnn4CCO)cn12)N1CCOCC1 [Compound 539]
test_target: PI3K γ (Homo sapiens, UniProt P48736)
value_kind: IC50
reported_result: > 10 µM

Give the value of IC50 reported for the following: Cn1ncc2c(-c3ccc4ncc(C(=O)N5CCOCC5)n4c3)cncc21 [Compound 537]
< 10 µM

Hello, please tell me recorded IC50 for this one: C[C@@H]1CN(C2CN(C(=O)c3cnc4ccc(-c5ccc6oc(N)nc6c5)cn34)C2)CCN1 [Compound 511]
< 10 µM

====

compounds and their reported pIC50
- test_target: PI3K γ (Homo sapiens)
- protocol: PI 3-Kinase (human) HTRF assay, PI3K γ
- study_conditions: read-out: PI3K γ IC50; Table 2
pIC50: −log10 of the molar value.

Previously resolved entries follow.
compound: CC(=O)N1CCC(n2nc(-c3cc4c(Cl)ccc(O)c4[nH]3)c3c(N)ncnc32)CC1 [Compound 69]
test_target: PI3K γ (Homo sapiens)
reported_result: < 6.30
//
compound: CC(C)N1CCC(n2nc(-c3cc4cccc(O)c4[nH]3)c3c(N)ncnc32)CC1 [Compound 64]
test_target: PI3K γ (Homo sapiens)
reported_result: 6.30 to 7.00
//
compound: CC(C)n1nc(-c2cc3cccc(Cl)c3[nH]2)c2c(N)ncnc21 [Compound 50]
test_target: PI3K γ (Homo sapiens)
reported_result: 6.30 to 7.00
//
compound: CC(C)n1nc(-c2cc3cc(O)c(Cl)cc3[nH]2)c2c(N)ncnc21 [Compound 32]
test_target: PI3K γ (Homo sapiens)
reported_result: < 6.30
//
compound: Nc1ncnc2c1c(-c1cc3cc(O)ccc3[nH]1)nn2C1CC(=O)C1 [Compound 53]
test_target: PI3K γ (Homo sapiens)
reported_result: < 6.30
//
compound: CC(=O)N1CCC(n2nc(-c3cc4ccc(O)cc4[nH]3)c3c(N)ncnc32)CC1 [Compound 65]
test_target: PI3K γ (Homo sapiens)
reported_result: 7.60 to 8.00
//
compound: CNC(=O)Cn1nc(-c2cc3cc(O)ccc3[nH]2)c2c(N)ncnc21 [Compound 35]
test_target: PI3K γ (Homo sapiens)
reported_result: < 6.30
//
compound: CC(C)N1CCC(n2nc(-c3cc4cc(O)ccc4[nH]3)c3c(N)ncnc32)CC1 [Compound 55]
test_target: PI3K γ (Homo sapiens)
reported_result: < 6.30

Give me measured pIC50, please, for this compound: Nc1ncnc2c1c(-c1cc3cccc(Cl)c3[nH]1)nn2C1CCOCC1 [Compound 51]
6.30 to 7.00

Using the record for Nc1ncnc2c1c(-c1cc3ccc(O)cc3[nH]1)nn2C1CCOCC1 [Compound 60] , state its measured pIC50.
7.00 to 7.30

Given the compound COc1cc(Cl)c2[nH]c(-c3nn(C4CCOCC4)c4ncnc(N)c34)cc2c1 [Compound 67] , write its reported pIC50.
< 6.30

Answer with reported pIC50 of CN1CCN(C2CCC(n3nc(-c4cc5cc(O)ccc5[nH]4)c4c(N)ncnc43)CC2)CC1 (stereo not drawn) [Compound 58]
< 6.30

Look up and report measured pIC50 for this entry: CC(=O)N1CCC(n2nc(-c3cc4cc(O)cc(Cl)c4[nH]3)c3c(N)ncnc32)CC1 [Compound 70]
7.00 to 7.30

Output pIC50 of Nc1ncnc2c1c(-c1cc3cc(O)ccc3[nH]1)nn2CCN1CCOCC1 [Compound 33]
< 6.30

Kindly indicate its recorded pIC50. Item: Nc1ncnc2c1c(-c1cc3cccc(O)c3[nH]1)nn2C1CCCC1 [Compound 36]
7.00 to 7.30

Supply measured pIC50 of CC(C)N1CCC(n2nc(-c3cc4cc(O)cc(Cl)c4[nH]3)c3c(N)ncnc32)CC1 [Compound 56] in your reply.
< 6.30

Please look at this compound and report its pIC50: Nc1ncnc2c1c(-c1cc3cc(O)cc(Cl)c3[nH]1)nn2C1CCOCC1 [Compound 68]
7.30 to 7.60

Output measured pIC50 for this item: COc1cccc2cc(-c3nn(C4CCOCC4)c4ncnc(N)c34)[nH]c12 [Compound 63]
7.60 to 8.00

====

- test_target: PI3K β (Homo sapiens, UniProt P42338)
- Sequence (P42338 whole entry): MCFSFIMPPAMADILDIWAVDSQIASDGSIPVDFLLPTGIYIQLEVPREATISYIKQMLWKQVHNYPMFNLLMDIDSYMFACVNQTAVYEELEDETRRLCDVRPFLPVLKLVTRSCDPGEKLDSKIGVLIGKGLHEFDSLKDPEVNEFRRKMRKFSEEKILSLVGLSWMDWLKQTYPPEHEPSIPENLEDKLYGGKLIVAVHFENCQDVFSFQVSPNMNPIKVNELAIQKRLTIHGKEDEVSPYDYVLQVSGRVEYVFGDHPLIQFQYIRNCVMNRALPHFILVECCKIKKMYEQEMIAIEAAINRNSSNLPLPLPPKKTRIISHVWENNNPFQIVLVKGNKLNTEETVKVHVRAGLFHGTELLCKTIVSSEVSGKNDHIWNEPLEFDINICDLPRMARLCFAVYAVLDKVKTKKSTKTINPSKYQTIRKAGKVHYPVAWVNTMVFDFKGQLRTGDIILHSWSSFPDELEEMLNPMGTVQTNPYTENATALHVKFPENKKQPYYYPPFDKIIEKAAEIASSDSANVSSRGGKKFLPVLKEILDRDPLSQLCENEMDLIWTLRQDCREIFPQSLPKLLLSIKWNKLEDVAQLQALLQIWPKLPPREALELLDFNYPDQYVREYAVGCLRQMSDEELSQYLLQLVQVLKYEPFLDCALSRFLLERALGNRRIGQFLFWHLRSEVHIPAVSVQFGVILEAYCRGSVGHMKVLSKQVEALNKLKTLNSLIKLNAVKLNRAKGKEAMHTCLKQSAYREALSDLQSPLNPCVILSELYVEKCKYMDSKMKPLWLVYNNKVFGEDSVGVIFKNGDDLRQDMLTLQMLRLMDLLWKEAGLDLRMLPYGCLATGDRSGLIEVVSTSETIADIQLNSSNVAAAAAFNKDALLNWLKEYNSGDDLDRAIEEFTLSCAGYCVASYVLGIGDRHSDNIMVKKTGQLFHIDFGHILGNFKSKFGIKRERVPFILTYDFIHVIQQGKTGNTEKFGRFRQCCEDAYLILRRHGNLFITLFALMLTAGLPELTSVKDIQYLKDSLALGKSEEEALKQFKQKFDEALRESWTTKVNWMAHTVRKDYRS
- Sequence (P27986 whole entry partner): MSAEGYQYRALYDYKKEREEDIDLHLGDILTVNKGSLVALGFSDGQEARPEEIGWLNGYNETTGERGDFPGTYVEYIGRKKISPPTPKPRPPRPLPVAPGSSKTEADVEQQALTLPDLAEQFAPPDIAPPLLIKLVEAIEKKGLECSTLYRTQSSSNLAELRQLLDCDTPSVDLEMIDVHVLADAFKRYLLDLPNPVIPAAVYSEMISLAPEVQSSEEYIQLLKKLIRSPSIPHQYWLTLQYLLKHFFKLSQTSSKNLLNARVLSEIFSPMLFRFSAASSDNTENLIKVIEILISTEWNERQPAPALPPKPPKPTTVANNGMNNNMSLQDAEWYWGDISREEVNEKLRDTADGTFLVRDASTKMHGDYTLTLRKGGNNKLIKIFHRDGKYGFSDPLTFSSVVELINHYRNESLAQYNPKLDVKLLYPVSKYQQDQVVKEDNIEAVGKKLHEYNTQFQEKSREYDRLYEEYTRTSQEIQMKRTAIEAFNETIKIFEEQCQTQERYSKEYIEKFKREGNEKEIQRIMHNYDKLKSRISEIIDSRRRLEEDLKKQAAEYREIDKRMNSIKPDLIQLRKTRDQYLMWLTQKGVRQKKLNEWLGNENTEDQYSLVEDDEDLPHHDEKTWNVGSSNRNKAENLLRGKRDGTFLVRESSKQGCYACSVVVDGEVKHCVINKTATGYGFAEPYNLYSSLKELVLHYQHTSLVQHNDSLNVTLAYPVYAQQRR
- protocol: PI 3-Kinase (human) HTRF assay, PI3K β
- study_conditions: read-out: PI3K β IC50; in vitro
// values below are reported IC50

Known results for molecules:
chem_smiles: O=C(c1cnc2ccc(-c3cncc4c3cnn4CCO)cn12)N1CCOCC1
test_target: PI3K β (Homo sapiens, UniProt P42338)
value_kind: IC50
reported_result: > 10 µM
--
chem_smiles: O=C(c1cnc2ccc(-c3ccc(Cl)c(NS(=O)(=O)c4ccc(F)cc4F)c3)cn12)N1CCOCC1
test_target: PI3K β (Homo sapiens, UniProt P42338)
value_kind: IC50
reported_result: < 10 µM
--
chem_smiles: COc1ccc(CNc2n[nH]c3cc(-c4ccc5oc(N)nc5c4)ccc23)cc1
test_target: PI3K β (Homo sapiens, UniProt P42338)
value_kind: IC50
reported_result: > 10 µM
--
chem_smiles: Nc1cc(-c2ccc3ncc(C(=O)N4CCOCC4)n3c2)cnc1Cl
test_target: PI3K β (Homo sapiens, UniProt P42338)
value_kind: IC50
reported_result: > 10 µM
--
chem_smiles: [2H]C1([2H])OC([2H])([2H])C([2H])([2H])N(C(=O)c2cnc3ccc(-c4ccc5oc(N)nc5c4)cn23)C1([2H])[2H]
test_target: PI3K β (Homo sapiens, UniProt P42338)
value_kind: IC50
reported_result: > 10 µM
--
chem_smiles: CNS(=O)(=O)c1cc(-c2ccc3ncc(C(=O)N4CCOCC4)n3c2)ccc1OC
test_target: PI3K β (Homo sapiens, UniProt P42338)
value_kind: IC50
reported_result: > 10 µM
--
chem_smiles: [2H]c1c(-c2ccc3ncc(C(=O)N4CCOCC4)n3c2)c([2H])c2nc(N)oc2c1[2H]
test_target: PI3K β (Homo sapiens, UniProt P42338)
value_kind: IC50
reported_result: < 10 µM

Then there is this molecule:
Return the recorded IC50 value; entry: `Cc1cc(-c2ccc3nc(N)oc3c2)cn2c(-c3ccncc3)nnc12`
< 10 µM

====

- test_target: mTOR (Homo sapiens, UniProt P42345)
- Construct: purchased Invitrogen
- Sequence (P42345 1360-2549 limits assumed): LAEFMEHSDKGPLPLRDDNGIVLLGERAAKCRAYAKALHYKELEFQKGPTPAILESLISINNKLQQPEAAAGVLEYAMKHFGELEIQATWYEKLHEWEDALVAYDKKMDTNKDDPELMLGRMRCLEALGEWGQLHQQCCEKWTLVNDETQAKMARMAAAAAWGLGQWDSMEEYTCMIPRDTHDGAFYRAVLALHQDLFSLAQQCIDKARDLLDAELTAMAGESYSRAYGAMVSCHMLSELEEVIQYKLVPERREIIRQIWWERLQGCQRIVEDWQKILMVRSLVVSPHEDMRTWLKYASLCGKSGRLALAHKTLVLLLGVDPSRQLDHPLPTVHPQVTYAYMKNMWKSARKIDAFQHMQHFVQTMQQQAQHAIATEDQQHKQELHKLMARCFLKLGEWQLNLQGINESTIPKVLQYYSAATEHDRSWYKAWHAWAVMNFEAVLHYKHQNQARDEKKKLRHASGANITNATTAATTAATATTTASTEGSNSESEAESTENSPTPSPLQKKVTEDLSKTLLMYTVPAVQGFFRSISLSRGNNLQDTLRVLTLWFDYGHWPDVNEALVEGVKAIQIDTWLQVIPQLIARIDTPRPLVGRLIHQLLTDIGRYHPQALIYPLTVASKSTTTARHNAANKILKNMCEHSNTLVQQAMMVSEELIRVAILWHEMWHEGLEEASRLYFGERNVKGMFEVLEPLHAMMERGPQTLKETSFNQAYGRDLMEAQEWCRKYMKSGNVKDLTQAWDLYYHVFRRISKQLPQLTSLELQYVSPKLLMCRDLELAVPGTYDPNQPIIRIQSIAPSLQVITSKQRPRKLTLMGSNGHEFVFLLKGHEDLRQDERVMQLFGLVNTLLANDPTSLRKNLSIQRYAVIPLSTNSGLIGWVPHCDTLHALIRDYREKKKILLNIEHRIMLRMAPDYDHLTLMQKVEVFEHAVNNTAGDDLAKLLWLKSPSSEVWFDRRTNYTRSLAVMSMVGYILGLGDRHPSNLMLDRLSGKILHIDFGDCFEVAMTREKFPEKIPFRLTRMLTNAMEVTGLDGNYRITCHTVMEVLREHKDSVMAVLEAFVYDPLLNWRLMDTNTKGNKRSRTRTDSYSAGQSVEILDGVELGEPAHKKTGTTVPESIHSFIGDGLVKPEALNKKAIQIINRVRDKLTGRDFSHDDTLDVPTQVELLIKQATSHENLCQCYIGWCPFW
- protocol: mTOR kinase inhibition assay (radiometric or LanthaScreen TR-FRET)
- Format: biochemical
- study_conditions: read-out: mTORC IC50
Recorded IC50 by entry

Below are worked cases with known answers.
molecule: CC(C)[C@@H](N)C(=O)N1CCN(c2cnc3ccc(-c4ccc5oc(N)nc5c4)cc3n2)CC1 [Compound 270]
IC50: < 10 µM
//
molecule: CC(=O)Nc1nc2ccc(-c3ccc4oc(N)nc4c3)cc2s1 [Compound 231]
IC50: < 10 µM

# context switch: different molecule, same IC50
Provide measured IC50 value, entry: Nc1nc2cc(-c3ccc4ncc(C(=O)NC5CCC(O)CC5)n4c3)ccc2o1 (stereo not drawn) [Compound 143]
> 10 µM

====

- test_target: PI3K δ (Homo sapiens, UniProt O00329)
- Sequence (O00329 whole entry): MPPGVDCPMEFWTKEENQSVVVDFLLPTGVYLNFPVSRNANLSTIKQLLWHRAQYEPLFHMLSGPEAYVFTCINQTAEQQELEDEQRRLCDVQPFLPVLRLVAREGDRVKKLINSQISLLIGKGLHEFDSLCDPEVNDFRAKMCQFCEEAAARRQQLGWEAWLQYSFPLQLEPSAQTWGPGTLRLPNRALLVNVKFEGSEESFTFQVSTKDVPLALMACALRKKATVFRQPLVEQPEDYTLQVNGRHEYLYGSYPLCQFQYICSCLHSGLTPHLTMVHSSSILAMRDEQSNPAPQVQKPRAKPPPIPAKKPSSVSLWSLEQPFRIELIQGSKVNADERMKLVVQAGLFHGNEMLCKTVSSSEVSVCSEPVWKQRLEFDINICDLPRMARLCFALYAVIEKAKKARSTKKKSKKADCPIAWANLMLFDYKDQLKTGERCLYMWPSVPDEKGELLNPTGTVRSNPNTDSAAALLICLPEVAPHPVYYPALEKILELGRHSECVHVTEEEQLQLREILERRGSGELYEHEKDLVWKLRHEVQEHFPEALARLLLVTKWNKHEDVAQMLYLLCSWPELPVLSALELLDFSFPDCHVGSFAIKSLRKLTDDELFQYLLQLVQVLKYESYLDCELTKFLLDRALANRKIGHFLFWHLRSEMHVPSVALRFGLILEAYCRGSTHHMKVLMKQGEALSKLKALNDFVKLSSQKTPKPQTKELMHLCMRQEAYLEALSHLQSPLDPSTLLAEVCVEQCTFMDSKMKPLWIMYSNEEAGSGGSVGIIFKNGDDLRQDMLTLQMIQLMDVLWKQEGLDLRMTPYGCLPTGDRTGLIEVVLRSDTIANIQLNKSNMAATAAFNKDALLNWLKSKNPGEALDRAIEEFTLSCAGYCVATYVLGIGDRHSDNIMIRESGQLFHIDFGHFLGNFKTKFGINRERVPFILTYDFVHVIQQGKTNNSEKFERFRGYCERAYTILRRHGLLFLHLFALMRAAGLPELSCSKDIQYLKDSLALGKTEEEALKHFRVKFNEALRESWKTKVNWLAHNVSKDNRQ
- Sequence (P27986 whole entry partner): as the sequence (P27986 whole entry partner) above
- protocol: PI 3-Kinase (human) HTRF assay, PI3K δ
- study_conditions: read-out: PI3K δ IC50
pIC50: −log10 of the molar value.
Recorded pIC50 for the following molecules

Look over these answered cases.
molecule: CC(C)[C@@H](N)C(=O)N1CCN(c2cnc3ccc(-c4ccc5oc(N)nc5c4)cc3n2)CC1
reported_result: > 6.00

molecule: Nc1nc2cc(-c3ccc4ncc(N5CC(N6CC[C@H](O)C6)C5)nc4c3)ccc2o1
reported_result: > 5.00

molecule: Cc1ncc(-c2ccc3ncc(C(=O)N4C5CCC4COC5)n3c2)c2cn[nH]c12
reported_result: > 5.00

molecule: Nc1nc2cc(-c3ccc4ncc(C(=O)N5CC[C@H](O)C5)n4c3)ccc2o1
reported_result: > 5.00

molecule: COc1ccc(Cl)c2cc(-c3nn(C4CCOCC4)c4ncnc(N)c34)[nH]c12
reported_result: < 6.30

molecule: Nc1nc2cc(-c3ccc4ncc(N5CC(N6CCOCC6)C5)nc4n3)ccc2o1
reported_result: > 5.00

molecule: CC(C)n1nc(-c2cc3cc(O)c(Cl)cc3[nH]2)c2c(N)ncnc21
reported_result: < 6.30

// below: pIC50 requested for another molecule
Fill in pIC50 for CN1CCN(C2CC(n3nc(-c4cc5cc(O)ccc5[nH]4)c4c(N)ncnc43)C2)CC1 (centres unmarked) tested with PI3K δ (Homo sapiens, UniProt O00329).
6.30 to 7.00
